# experimental_system: ScSla1-D3
# assay_explanation: SPOT peptide array binding signal intensity (averaged, normalized) (arbitrary units (background-subtracted, floor 0; scale differs between SH3 domains)); higher = stronger binding of the SH3 domain to the peptide
Is SPOT peptide array binding signal intensity at least 40? Then fulfilled. If not, not fulfilled.

These recorded examples may help you get a feel for the data.
            binder  discrete_label
0  LLLLFVPDSPYDPAI   not fulfilled
1  APKHAPPPVPNETDN   not fulfilled
2  RLSFFFPLDPAYIRN   not fulfilled
3  RRTRLRPPTPLSQLL   not fulfilled
4  ATKSASPTLPTRRSR   not fulfilled

Can NLDRSKISLPDFDDE be said to have SPOT peptide array binding signal intensity at or above 40?
not fulfilled

Can MAMRPIPPLPTESEY be said to have SPOT peptide array binding signal intensity at or above 40?
fulfilled

Can PSTMDFPKLPSFQNS be said to have SPOT peptide array binding signal intensity at or above 40?
fulfilled

Reference for the values: the supplement of paper PMC4466140
